B1: glmS ribozyme (parent)
chain: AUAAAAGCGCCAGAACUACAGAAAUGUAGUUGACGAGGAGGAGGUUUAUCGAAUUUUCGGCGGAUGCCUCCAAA

variants of: B1; test: self-cleavage kobs at 40 uM GlcN6P; higher = faster cleavage; RNA array; conditions: with glucosamine-6-phosphate
Fewer inactive variants are shown than the library holds.
VALUE_TYPE: self-cleavage kobs at 40 uM GlcN6P

Use these answered entries as a reference point.
| MUTANT_ID | MEASURED_VALUE |
| --- | --- |
| G43U C68U | 0.000181 s⁻¹ |
| A6G U65C | < 1e-05 s⁻¹ |
| G13U C16U C19A G40U | < 1e-05 s⁻¹ |
| A6C U47C U54A G59A C70U | < 1e-05 s⁻¹ |
| G32C U47G C67G | 0.000392 s⁻¹ |

Memo: A53G U55C , reported self-cleavage kobs at 40 uM GlcN6P: 0.000669 s⁻¹

Looking up A36U A48U , I found its self-cleavage kobs at 40 uM GlcN6P recorded as < 1e-05 s⁻¹

Given item A6U C58U , the value recorded as its self-cleavage kobs at 40 uM GlcN6P is < 1e-05 s⁻¹

# variant U45G A64U ; its self-cleavage kobs at 40 uM GlcN6P = < 1e-05 s⁻¹

U30G G60U yielded self-cleavage kobs at 40 uM GlcN6P of < 1e-05 s⁻¹

GET /value?item= C16U G60C C67A &field=self-cleavage kobs at 40 uM GlcN6P returns < 1e-05 s⁻¹

What the record says about A14G C70U : self-cleavage kobs at 40 uM GlcN6P is 0.00188 s⁻¹

A15G C16G has a reported self-cleavage kobs at 40 uM GlcN6P of 9.12e-05 s⁻¹

Please fill in: self-cleavage kobs at 40 uM GlcN6P reported for G32U G44A = < 1e-05 s⁻¹

Short answer for U30A A48G : self-cleavage kobs at 40 uM GlcN6P was < 1e-05 s⁻¹

Briefly, self-cleavage kobs at 40 uM GlcN6P measured for U47A U56G : 0.000264 s⁻¹

The measured values listed here are drawn from the supplement of paper PMC7125110.
